metric.name: melting point

Known results for molecules:
{"columns": ["molecule", "melting point"],
 "data": [
  ["O=C(Oc1cc(/C=C/c2ccc(O)cc2)cc(OC(=O)c2cc(O)c(O)c(O)c2)c1)c1cc(O)c(O)c(O)c1", "210 to 212 °C"],
  ["Cc1nc(N)nc(N)c1-c1cc(C#N)ccc1Cl", "239 to 241 °C"],
  ["CN(CCc1ccc(Nc2ncc3c(n2)-c2ccccc2C(c2ccc(Cl)c(Cl)c2)C3)cc1)C1CCCCC1 (stereo not given)", "130 to 131 °C"]
]}

**Query** Looking for the measured melting point of CC1(C)OC(c2ccc(S(C)(=O)=O)cc2)=C(c2ccc(S(C)(=O)=O)cc2)C1=O , can you help?
**Result** 245 to 257 °C

====

Measured melting point of individual entries

Known results for compounds:
{"columns": ["compound", "melting point"],
 "data": [
  ["O=C(c1ccccc1)c1ccc(F)c([N+](=O)[O-])c1", "59 °C"],
  ["O=C(O)Cc1ccc2oc(-c3ccc(Cl)cc3)nc2c1", "241 to 242 °C"]
]}

**Query** Looking for the measured melting point of CC(C)n1cnc2c(Nc3ccncc3)nc(F)nc21 , can you help?
**Result** 105 to 106 °C

**Query** Check NCCOCC(O)c1cccc2ccccc12 (stereo not given) too.
**Result** 89.5 to 92 °C

====

metric.name: melting point

Known results for molecules:
{"columns": ["molecule", "metric.name", "observed.value"],
 "data": [
  ["C=Cc1cc(CNC(=O)NCc2ccc(C(C)(C)C)cc2)cc(Cl)c1NS(C)(=O)=O", "melting point", "165 to 167 °C"],
  ["O=S(=O)(c1ccccc1)c1ccc(Oc2ccc(Cl)c(Cl)c2)nc1", "melting point", "113 to 114 °C"],
  ["CCN1CCN(c2nc(-c3ccc(OC)cc3)nc3sc(C#N)c(C)c23)CC1", "melting point", "173 to 175 °C"],
  ["CC1CC(=O)c2ccc(F)cc2O1 (stereo not given)", "melting point", "42 to 47 °C"]
]}

**Query** Looking for the measured melting point of COc1ccc(Nc2nc3cccc(-c4ccc(CN5CCS(=O)(=O)CC5)cc4)n3n2)cc1 , can you help?
**Result** 241 °C

====

Measured melting point of individual entries

{"columns": ["compound", "melting point"],
 "data": [
  ["O=C(c1ccc(Cl)cc1)c1cccc(NC(=O)c2ccn3c2CSC3c2cccnc2)c1 (stereo not given)", "176 °C"],
  ["Cc1cc(S(=O)(=O)N2c3ccccc3-c3ccccc3C2C)ccc1O (stereo not given)", "186 to 188 °C"],
  ["CS(=O)(=O)Nc1cccc(Nc2nc(NCC(O)CO)c3nc[nH]c3n2)c1 (stereo not given)", "164 to 168 °C"],
  ["COC(=O)c1[nH]c2c(C)ccc(Cl)c2c1C(=O)OC", "173 to 174 °C"],
  ["O=C(c1ccccc1)c1cc2c(cc1O)C(C(=O)O)CC2 (stereo not given)", "185 to 187 °C"]
]}

**Query** Looking for the measured melting point of CN1C(=O)N(CC(=O)O)C(=O)C1(C)C , can you help?
**Result** 130 to 132 °C

**Query** Check CCCCc1ncc(C(=O)OCC)c(NCc2ccc(-c3ccccc3-c3nnn[nH]3)cc2)n1 too.
**Result** 153 to 155 °C
